Sourced from ChEMBL document CHEMBL4602735

Test: Tmax in C57BL/6 mouse blood at 100 mg/kg, po measured from 5 mins to 24 hrs by HPLC analysis
Assay type: ADME, organism-based
value-kind: Tmax (min)
State just the number; it will be interpreted in min.

Cc1cc(Nc2nn(C3CC3)c3cnc(S(=O)(=O)N4CCC(O)CC4)cc23)ccc1F	30

Moving on to the next molecule.
Item Cc1cc(Nc2nn(C3CC3)c3cnc(S(=O)(=O)N4CCC(OC(=O)CN(C)C)CC4)cc23)ccc1F.O=C(O)CC(O)(CC(=O)O)C(=O)O : provide Tmax
60

----------
Tested on: Hepatitis B virus
Experiment: Antiviral activity against HBV infected in human HepG2.2.15 cells assessed as reduction in viral DNA levels incubated for 6 days by PCR analysis
Assay type: functional, organism-based
Conditions: HepG2 2.2.15, 144 h
Decision: EC50 beneath 40 nM gives 1.0; EC50 meeting or exceeding 40 nM gives 0.0.

CC[C@@H](C)NS(=O)(=O)c1ccc(F)c(C(=O)Nc2ccc(F)c(F)c2)c1	0.0

Consider Cc1cc(Nc2nn(C3CC3)c3cnc(S(=O)(=O)N4CCC(O)CC4)cc23)ccc1F . Does its EC50 lie strictly below 40 nM?
1.0

Consider Nc1ccn([C@@H]2CS[C@H](CO)O2)c(=O)n1 . Does its EC50 lie strictly below 40 nM?
1.0

Consider O=S(=O)(c1cc2c(Nc3ccc(F)c(C(F)F)c3)nn(C3CC3)c2cn1)N1CCC(O)CC1 . Does its EC50 lie strictly below 40 nM?
0.0

Consider CCOC(=O)C1=C(CN2CCOCC2)NC(c2nccs2)=NC1c1ccc(F)cc1Br (stereo not given) . Does its EC50 lie strictly below 40 nM?
1.0

----------
Test: Oral bioavailability in C57BL/6 mouse liver at 200 mg/kg measured from 5 mins to 24 hrs by HPLC analysis
Format: ADME, organism-based
value-kind: bioavailability (%)
State just the number; it will be interpreted in %.

Item Cc1cc(Nc2nn(C3CC3)c3cnc(S(=O)(=O)N4CCC(OC(=O)CN(C)C)CC4)cc23)ccc1F.O=C(O)CC(O)(CC(=O)O)C(=O)O : provide bioavailability
132

----------
Experiment: Cytotoxicity in human HepAD38 cells assessed as induction of cell killing
Assay type: cell-based
Collected CC50 values appear next to each entry.
State just the number; it will be interpreted in µM.

Examples with their reported CC50 follow.
O=S(=O)(c1ccc2c(c1)c(Nc1ccc(F)c(C(F)F)c1)nn2C1CC1)N1CCC(O)CC1	13.6
O=S(=O)(c1ccc2c(c1)c(Nc1ccc(F)c(F)c1)nn2C1CC1)N1CCC(O)CC1	75

Item O=S(=O)(c1ccc2c(c1)c(Nc1ccccc1)nn2C1CC1)N1CCC(O)CC1 : provide CC50
32.2

Item Cc1cc(Nc2n[nH]c3ccc(S(=O)(=O)N4CCOCC4)cc23)ccc1F : provide CC50
50

----------
Collected bioavailability values appear next to each entry.
Experiment: Oral bioavailability in C57BL/6 mouse liver at 100 mg/kg measured from 5 mins to 24 hrs by HPLC analysis
Assay type: ADME, organism-based
State just the number; it will be interpreted in %.

Cc1cc(Nc2nn(C3CC3)c3cnc(S(=O)(=O)N4CCC(O)CC4)cc23)ccc1F	12

Moving on to the next molecule.
Item Cc1cc(Nc2nn(C3CC3)c3cnc(S(=O)(=O)N4CCC(OC(=O)CN(C)C)CC4)cc23)ccc1F.O=C(O)CC(O)(CC(=O)O)C(=O)O : provide bioavailability
87.6

----------
Experiment: Solubility in water at 1 mg at 25 degC by HPLC analysis
Assay type: physicochemical
Collected solubility values appear next to each entry.
State just the number; it will be interpreted in µg/mL.

Examples with their reported solubility follow.
Cc1cc(Nc2nn(C3CC3)c3cnc(S(=O)(=O)N4CCC(OC(=O)CN(C)C)CC4)cc23)ccc1F.O=C(O)CC(O)(CC(=O)O)C(=O)O	8130
CS(=O)(=O)O.CS(=O)(=O)O.Cc1cc(Nc2nn(C3CC3)c3cnc(S(=O)(=O)N4CCC(OC(=O)CN(C)C)CC4)cc23)ccc1F	7900
Cc1cc(Nc2nn(C3CC3)c3cnc(S(=O)(=O)N4CCC(OC(=O)CN(C)C)CC4)cc23)ccc1F.O=C(O)/C=C\C(=O)O	4200

Moving on to the next molecule.
Item Cc1cc(Nc2nn(C3CC3)c3cnc(S(=O)(=O)N4CCC(OC(=O)CN(C)C)CC4)cc23)ccc1F.O=C(O)C(F)(F)F : provide solubility
1510

----------
Experiment: Cytotoxicity in human HepAD38 cells assessed as induction of cell killing
Format: cell-based
value-kind: CC50

CCn1nc(Nc2ccc(F)cc2)c2cc(S(=O)(=O)N3CCC(O)CC3)ccc21	> 100 µM
Cc1cc(F)ccc1Nc1nn(C2CC2)c2ccc(S(=O)(=O)N3CCC(O)CC3)cc12	> 100 µM
Cc1cc(Nc2nn(CC(F)F)c3ccc(S(=O)(=O)N4CCOCC4)cc23)ccc1F	> 100 µM
O=S(=O)(c1cc2c(Nc3cc(F)c(F)c(F)c3)nn(C3CC3)c2cc1F)N1CCC(O)CC1	> 100 µM

Item CN(c1ccc(F)c(Cl)c1)c1nn(C2CC2)c2ccc(S(=O)(=O)N3CCC(O)CC3)cc12 : provide CC50
> 100 µM

Item O=S(=O)(c1ccc2c(c1)c(Nc1ccc(F)cc1)nn2C1CC1)N1CCOCC1 : provide CC50
> 100 µM

Item O=S(=O)(c1cc(F)c2c(c1)c(Nc1cc(F)c(F)c(F)c1)nn2C1CC1)N1CCC(O)CC1 : provide CC50
> 100 µM

Item Cn1nc(Nc2ccc(F)c(Cl)c2)c2cc(S(=O)(=O)N3CCC(O)CC3)ccc21 : provide CC50
> 100 µM

Item O=S(=O)(c1ccc2c(c1)c(Nc1ccc(F)cc1Cl)nn2C1CC1)N1CCC(O)CC1 : provide CC50
> 100 µM

Item O=S(=O)(c1cc2c(Nc3ccc(F)c(F)c3)nn(C3CC3)c2cn1)N1CCC(O)CC1 : provide CC50
> 100 µM

Item O=S(=O)(c1ccc2c(c1)c(Nc1cc(F)c(F)c(F)c1)nn2C1CC1)N1CCC(O)CC1 : provide CC50
100 µM

Item O=S(=O)(c1ccc2c(c1)c(Nc1ccc(F)cc1)nn2C1CC1)N1CCC2(CC1)OCCO2 : provide CC50
> 100 µM

Item O=S(=O)(c1ccc2[nH]nc(Nc3ccc(F)c(Cl)c3)c2c1)N1CCC(O)CC1 : provide CC50
24 µM

Item O=S(=O)(c1ccc2c(c1)c(Nc1ccc(F)cc1)nn2C1CC1)N1CCC(CO)CC1 : provide CC50
24.8 µM

----------
Assay: Selectivity index, ratio of CC50 for cytotoxicity in human HepAD38 cells assessed as induction of cell killing to EC50 for antiviral activity against HBV infected in human HepAD38 cells assessed as reduction in viral DNA levels incubated for 6 days by PCR analysis
Assay type: toxicity, cell-based
Details: read-out: Ratio CC50/EC50
value-kind: selectivity ratio at 144 h

Examples with their reported selectivity ratio at 144 h follow.
Cc1cc(Nc2nn(C3CC3)c3cnc(S(=O)(=O)N4CCC(O)CC4)cc23)ccc1F	> 2940
O=S(=O)(c1ccc2c(c1)c(Nc1ccc(F)c(F)c1)nn2C1CC1)N1CCOCC1	> 454

Moving on to the next compound.
Item O=S(=O)(c1cc2c(Nc3ccc(F)c(F)c3)nn(C3CC3)c2cn1)N1CCOCC1 : provide selectivity ratio at 144 h
> 454

----------
System: Hepatitis B virus
Assay: Antiviral activity against HBV infected in human HepAD38 cells assessed as reduction in viral DNA levels incubated for 6 days by PCR analysis
Type: functional, organism-based
Conditions: HePAD38, 144 h
pEC50: −log10 of the molar value.
value-kind: pEC50

Examples with their reported pEC50 follow.
Cc1cc(Nc2nn(C3CC3)c3ccc(S(=O)(=O)N4CCC(O)CC4)cc23)ncc1F	< 5.00
Cc1cc(Nc2nn(C3CC3)c3ccc(S(=O)(=O)N4CCC(O)CC4)cc23)ccn1	< 4.70

Moving on to the next molecule.
Item O=S(=O)(c1cnc2c(c1)c(Nc1cc(F)c(F)c(F)c1)nn2C1CC1)N1CCC(O)CC1 : provide pEC50
< 4.70

----------
System: Hepatitis B virus
Assay: Antiviral activity against HBV infected in human HepAD38 cells assessed as reduction in viral DNA levels incubated for 6 days by PCR analysis
Type: functional, organism-based
Settings: HePAD38, 144 h
value-kind: EC50

Examples with their reported EC50 follow.
Cc1ccc(Nc2nn(C3CC3)c3ccc(S(=O)(=O)N4CCC(O)CC4)cc23)cc1	220 to 5000 nM
O=S(=O)(c1ccc2c(c1)c(NCc1ccccc1)nn2C1CC1)N1CCC(O)CC1	> 10000 nM
O=C1CCN(S(=O)(=O)c2ccc3c(c2)c(Nc2ccc(F)cc2)nn3C2CC2)CC1	330 nM
O=S(=O)(c1ccc2c(c1)c(Nc1ccc(F)cn1)nn2C1CC1)N1CCC(O)CC1	> 10000 nM
O=S(=O)(c1cc2c(Nc3ccc(F)c(C(F)(F)F)c3)nn(C3CC3)c2cn1)N1CCOCC1	340 nM

Item O=S(=O)(c1ccc2c(c1)c(Nc1ccc(F)cc1)nn2C1CC1)N1CCC(O)C1 (stereo not drawn) : provide EC50
2100 nM

Item CN(c1ccc(F)c(Cl)c1)c1nn(C2CC2)c2ccc(S(=O)(=O)N3CCC(O)CC3)cc12 : provide EC50
> 10000 nM

Item O=S(=O)(c1ccc2c(n1)c(Nc1cc(F)c(F)c(F)c1)nn2C1CC1)N1CCC(O)CC1 : provide EC50
> 5000 nM
